# System: Klebsiella pneumoniae
# ASSAY DETAILS: Antibacterial activity against Klebsiella pneumoniae MTCC 618 at 10 ug per disk after 24 hrs by disc diffusion method
# Assay type: functional
# ASSAY CONTEXT: MTCC 618, 24 h, read-out: DIZ
Provide the reported zone of inhibition at 10 µg/disc of each item.
Give the value, in units of mm, as a plain number.

Input line: Annotate the molecule `CCCCc1nc(Cl)c(-c2cc(-c3ccccc3)nc3c2C(=O)c2ccccc2-3)n1Cc1ccccc1` with its measured zone of inhibition at 10 µg/disc.
Output line: 11

Input line: Annotate the molecule `CCCCc1nc(Cl)c(-c2cc(-c3cccc(Br)n3)nc3c2C(=O)c2ccccc2-3)n1Cc1ccccc1` with its measured zone of inhibition at 10 µg/disc.
Output line: 9

Input line: Annotate the molecule `CCCCc1nc(Cl)c(-c2cc(-c3ccc(OC)cc3)nc3c2C(=O)c2ccccc2-3)n1Cc1ccccc1` with its measured zone of inhibition at 10 µg/disc.
Output line: 11

Input line: Annotate the molecule `CCCCc1nc(Cl)c(-c2cc(-c3cn(S(=O)(=O)c4ccc(C)cc4)c4ccccc34)nc3c2C(=O)c2ccccc2-3)n1Cc1ccccc1` with its measured zone of inhibition at 10 µg/disc.
Output line: 12

Input line: Annotate the molecule `CCCCc1nc(Cl)c(-c2cc(-c3cccs3)nc3c2C(=O)c2ccccc2-3)n1Cc1ccccc1` with its measured zone of inhibition at 10 µg/disc.
Output line: 10

Input line: Annotate the molecule `CCCCc1nc(Cl)c(-c2cc(-c3ccc(C)cc3)nc3c2C(=O)c2ccccc2-3)n1Cc1ccccc1` with its measured zone of inhibition at 10 µg/disc.
Output line: 11

Input line: Annotate the molecule `CCCCc1nc(Cl)c(-c2cc(-c3ccc([N+](=O)[O-])cc3)nc3c2C(=O)c2ccccc2-3)n1Cc1ccccc1` with its measured zone of inhibition at 10 µg/disc.
Output line: 10

Input line: Annotate the molecule `CCCCc1nc(Cl)c(-c2cc(-c3ccco3)nc3c2C(=O)c2ccccc2-3)n1Cc1ccccc1` with its measured zone of inhibition at 10 µg/disc.
Output line: 15

###

# Test system: Klebsiella pneumoniae
# ASSAY DETAILS: Antibacterial activity against Klebsiella pneumoniae MTCC 618 at 10 ug per disk after 24 hrs by disc diffusion method
# Type: functional
# ASSAY CONTEXT: MTCC 618, 24 h, read-out: DIZ
Provide the reported zone of inhibition at 10 µg/disc of each item.
Give the value, in units of mm, as a plain number.

Input line: Annotate the molecule `CCCCc1nc(Cl)c(-c2cc(-c3ccc4oc5ccccc5c4c3)nc3c2C(=O)c2ccccc2-3)n1Cc1ccccc1` with its measured zone of inhibition at 10 µg/disc.
Output line: 13

Input line: Annotate the molecule `CCCCc1nc(Cl)c(-c2cc(-c3ccc4ccccc4c3)nc3c2C(=O)c2ccccc2-3)n1Cc1ccccc1` with its measured zone of inhibition at 10 µg/disc.
Output line: 12

Input line: Annotate the molecule `CCCCc1nc(Cl)c(-c2cc(-c3ccc(Br)s3)nc3c2C(=O)c2ccccc2-3)n1Cc1ccccc1` with its measured zone of inhibition at 10 µg/disc.
Output line: 12

Input line: Annotate the molecule `CCCCc1nc(Cl)c(-c2cc(-c3ccc(Br)cc3)nc3c2C(=O)c2ccccc2-3)n1Cc1ccccc1` with its measured zone of inhibition at 10 µg/disc.
Output line: 12

Input line: Annotate the molecule `CCCCc1nc(Cl)c(-c2cc(-c3ccc4sc5ccccc5c4c3)nc3c2C(=O)c2ccccc2-3)n1Cc1ccccc1` with its measured zone of inhibition at 10 µg/disc.
Output line: 11

Input line: Annotate the molecule `CCCCc1nc(Cl)c(-c2cc(-c3cccc4ccccc34)nc3c2C(=O)c2ccccc2-3)n1Cc1ccccc1` with its measured zone of inhibition at 10 µg/disc.
Output line: 12

Input line: Annotate the molecule `CCCCc1nc(Cl)c(-c2cc(-c3cc(OC)c(OC)c(OC)c3)nc3c2C(=O)c2ccccc2-3)n1Cc1ccccc1` with its measured zone of inhibition at 10 µg/disc.
Output line: 11

###

# System: Bacillus subtilis
# ASSAY DETAILS: Antibacterial activity against Bacillus subtilis MTCC 121 at 10 ug per disk after 24 hrs by disc diffusion method
# Type: functional
# ASSAY CONTEXT: MTCC 121, 24 h, read-out: DIZ
Provide the reported zone of inhibition at 10 µg/disc of each item.
Give the value, in units of mm, as a plain number.

Input line: Annotate the molecule `CCCCc1nc(Cl)c(-c2cc(-c3ccc(Br)s3)nc3c2C(=O)c2ccccc2-3)n1Cc1ccccc1` with its measured zone of inhibition at 10 µg/disc.
Output line: 9

Input line: Annotate the molecule `CCCCc1nc(Cl)c(-c2cc(-c3ccccc3)nc3c2C(=O)c2ccccc2-3)n1Cc1ccccc1` with its measured zone of inhibition at 10 µg/disc.
Output line: 8

Input line: Annotate the molecule `CCCCc1nc(Cl)c(-c2cc(-c3ccco3)nc3c2C(=O)c2ccccc2-3)n1Cc1ccccc1` with its measured zone of inhibition at 10 µg/disc.
Output line: 8

Input line: Annotate the molecule `CCCCc1nc(Cl)c(-c2cc(-c3ccc([N+](=O)[O-])cc3)nc3c2C(=O)c2ccccc2-3)n1Cc1ccccc1` with its measured zone of inhibition at 10 µg/disc.
Output line: 10

Input line: Annotate the molecule `CCCCc1nc(Cl)c(-c2cc(-c3cccc(Br)n3)nc3c2C(=O)c2ccccc2-3)n1Cc1ccccc1` with its measured zone of inhibition at 10 µg/disc.
Output line: 8

Input line: Annotate the molecule `CCCCc1nc(Cl)c(-c2cc(-c3cccs3)nc3c2C(=O)c2ccccc2-3)n1Cc1ccccc1` with its measured zone of inhibition at 10 µg/disc.
Output line: 10

Input line: Annotate the molecule `CCCCc1nc(Cl)c(-c2cc(-c3ccc4oc5ccccc5c4c3)nc3c2C(=O)c2ccccc2-3)n1Cc1ccccc1` with its measured zone of inhibition at 10 µg/disc.
Output line: 9

Input line: Annotate the molecule `CCCCc1nc(Cl)c(-c2cc(-c3cccc4ccccc34)nc3c2C(=O)c2ccccc2-3)n1Cc1ccccc1` with its measured zone of inhibition at 10 µg/disc.
Output line: 10

Input line: Annotate the molecule `CCCCc1nc(Cl)c(-c2cc(-c3ccc(Br)cc3)nc3c2C(=O)c2ccccc2-3)n1Cc1ccccc1` with its measured zone of inhibition at 10 µg/disc.
Output line: 9

Input line: Annotate the molecule `CCCCc1nc(Cl)c(-c2cc(-c3cn(S(=O)(=O)c4ccc(C)cc4)c4ccccc34)nc3c2C(=O)c2ccccc2-3)n1Cc1ccccc1` with its measured zone of inhibition at 10 µg/disc.
Output line: 7

Input line: Annotate the molecule `CCCCc1nc(Cl)c(-c2cc(-c3ccc4sc5ccccc5c4c3)nc3c2C(=O)c2ccccc2-3)n1Cc1ccccc1` with its measured zone of inhibition at 10 µg/disc.
Output line: 9

Input line: Annotate the molecule `CCCCc1nc(Cl)c(-c2cc(-c3cc(OC)c(OC)c(OC)c3)nc3c2C(=O)c2ccccc2-3)n1Cc1ccccc1` with its measured zone of inhibition at 10 µg/disc.
Output line: 9

Input line: Annotate the molecule `CCCCc1nc(Cl)c(-c2cc(-c3ccc(C)cc3)nc3c2C(=O)c2ccccc2-3)n1Cc1ccccc1` with its measured zone of inhibition at 10 µg/disc.
Output line: 8

Input line: Annotate the molecule `CCCCc1nc(Cl)c(-c2cc(-c3ccc4ccccc4c3)nc3c2C(=O)c2ccccc2-3)n1Cc1ccccc1` with its measured zone of inhibition at 10 µg/disc.
Output line: 9

Input line: Annotate the molecule `CCCCc1nc(Cl)c(-c2cc(-c3ccc(OC)cc3)nc3c2C(=O)c2ccccc2-3)n1Cc1ccccc1` with its measured zone of inhibition at 10 µg/disc.
Output line: 9

###

# System: Escherichia coli
# ASSAY DETAILS: Antibacterial activity against Escherichia coli MTCC 1573 at 10 ug per disk after 24 hrs by disc diffusion method
# Type: functional
# ASSAY CONTEXT: MTCC 1573, 24 h, read-out: DIZ
Provide the reported zone of inhibition at 10 µg/disc of each item.
Could you give the number and then its unit, please?

Input line: Annotate the molecule `CCCCc1nc(Cl)c(-c2cc(-c3ccc4sc5ccccc5c4c3)nc3c2C(=O)c2ccccc2-3)n1Cc1ccccc1` with its measured zone of inhibition at 10 µg/disc.
Output line: 8 mm

Input line: Annotate the molecule `CCCCc1nc(Cl)c(-c2cc(-c3cccs3)nc3c2C(=O)c2ccccc2-3)n1Cc1ccccc1` with its measured zone of inhibition at 10 µg/disc.
Output line: 9 mm

Input line: Annotate the molecule `CCCCc1nc(Cl)c(-c2cc(-c3ccccc3)nc3c2C(=O)c2ccccc2-3)n1Cc1ccccc1` with its measured zone of inhibition at 10 µg/disc.
Output line: 9 mm

Input line: Annotate the molecule `CCCCc1nc(Cl)c(-c2cc(-c3ccc4oc5ccccc5c4c3)nc3c2C(=O)c2ccccc2-3)n1Cc1ccccc1` with its measured zone of inhibition at 10 µg/disc.
Output line: 9 mm

Input line: Annotate the molecule `CCCCc1nc(Cl)c(-c2cc(-c3cccc(Br)n3)nc3c2C(=O)c2ccccc2-3)n1Cc1ccccc1` with its measured zone of inhibition at 10 µg/disc.
Output line: 9 mm

Input line: Annotate the molecule `CCCCc1nc(Cl)c(-c2cc(-c3ccc(C)cc3)nc3c2C(=O)c2ccccc2-3)n1Cc1ccccc1` with its measured zone of inhibition at 10 µg/disc.
Output line: 9 mm

Input line: Annotate the molecule `CCCCc1nc(Cl)c(-c2cc(-c3ccc(OC)cc3)nc3c2C(=O)c2ccccc2-3)n1Cc1ccccc1` with its measured zone of inhibition at 10 µg/disc.
Output line: 8 mm

Input line: Annotate the molecule `CCCCc1nc(Cl)c(-c2cc(-c3cn(S(=O)(=O)c4ccc(C)cc4)c4ccccc34)nc3c2C(=O)c2ccccc2-3)n1Cc1ccccc1` with its measured zone of inhibition at 10 µg/disc.
Output line: 8 mm
